System: LNCaP cells
Assay: LNCaP cell viability assay (MTS)
Type: cell-based
Settings: Homo sapiens, LNCaP, 48 h, LNCaP cell line
attributeMeasured: GI50 (µM)

Sample answers from the record:
CN(C)CC(NS(=O)(=O)c1ccc(-c2ccccc2)cc1)c1ccc(Cl)c(Cl)c1 (single isomer, unassigned) [Compound 195]
11.9
CN(C)CC(NS(=O)(=O)c1ccc(Oc2ccccc2)cc1)c1cccc(C(F)(F)F)c1 (stereo not shown)
12.1
COC(c1ccccc1Cl)C(C)NS(=O)(=O)c1ccc(OC(F)(F)F)cc1 (stereo not shown)
50.9
CN(C)CC(NS(=O)(=O)c1ccc(NC2CCC2)cc1)c1ccc(Cl)c(Cl)c1 (stereo not shown)
22.8

A: O=S(=O)(NC(CN1CCCC1)c1ccc(Cl)c(Cl)c1)c1ccc(OC(F)(F)F)cc1 (stereo not shown)
B: CN(C)CC(NS(=O)(=O)c1ccc(OC(F)(F)F)c(Cl)c1)c1cccc(C(F)(F)F)c1 (stereo not shown)
C: CN(C)CC(NS(=O)(=O)c1ccc(OC(F)(F)F)c([N+](=O)[O-])c1)c1ccc(Cl)c(Cl)c1 (stereo not shown)
Challenge: Rank items: key GI50, increasing. The labels, placed in the requested order, form the answer.
Response given: C, B, A
